# MIC listing for each entry below
system: Staphylococcus aureus; assay: Antibacterial activity against methicillin-resistant Staphylococcus aureus NR10194 measured after 16 to 18 hrs; format: functional; settings: time 16-18 hrs
Give the quantity in µg/mL, number only.

If you can, please state the reported MIC value of Fc1ccc2[nH]c(-c3ccc(Nc4nc(-c5ccc(Cl)cc5)nc5ccccc45)cc3)nc2c1 .
4

Quick one: MIC for Clc1ccc(-c2nc(Nc3ccc(-c4nc5ccccc5[nH]4)cc3)c3ccccc3n2)cc1 ?
8

----------
test system: Staphylococcus aureus; test: Antibacterial activity against vancomycin-resistant Staphylococcus aureus VRS12 measured after 16 to 18 hrs; format: functional; settings: time 16-18 hrs
Measured MIC of individual entries
Write it as a number; the unit µg/mL goes unstated.

Please provide the recorded MIC for Clc1ccc(-c2nc(Nc3ccc(-c4nc5ccccc5[nH]4)cc3)c3ccccc3n2)cc1 , tested on Staphylococcus aureus.
8

Staphylococcus aureus / MIC / c1ccc(-c2nc(Nc3ccc(-c4nc5ccccc5[nH]4)cc3)c3ccccc3n2)cc1 : value?
16

// map C[C@@H](O)[C@H]1C(=O)N2C(C(=O)O)=C(S[C@@H]3CN[C@H](C(=O)N(C)C)C3)[C@H](C)[C@H]12 to recorded MIC (system: Staphylococcus aureus)
16

Identify the measured MIC of Fc1ccc2[nH]c(-c3ccc(Nc4nc(-c5ccc(Cl)cc5)nc5ccccc45)cc3)nc2c1 for Staphylococcus aureus.
4

Item CCCCCCCCCC(=O)N[C@@H](Cc1c[nH]c2ccccc12)C(=O)N[C@H](CC(N)=O)C(=O)N[C@@H](CC(=O)O)C(=O)N[C@@H]1C(=O)NCC(=O)N[C@@H](CCCN)C(=O)N[C@@H](CC(=O)O)C(=O)N[C@H](C)C(=O)N[C@@H](CC(=O)O)C(=O)NCC(=O)N[C@H](CO)C(=O)N[C@@H]([C@H](C)CC(=O)O)C(=O)N[C@@H](CC(=O)c2ccccc2N)C(=O)O[C@@H]1C with Staphylococcus aureus - MIC?
0.5

----------
tested on: Mycobacterium tuberculosis; assay: Antitubercular activity against Mycobacterium tuberculosis H37Rv ATCC 27294 measured after 7 days by broth microdilution method; assay type: functional; details: H37Rv ATCC 27294, 168 h, time 7 day
property.label: log10 MIC (log10 of the value in µg/mL)
Log10 applied to MIC; unit prior to transform: µg/mL.

# sample.smiles, measurement.target, log10 MIC
data = [
    ("N#Cc1ccc(/C=C/c2nc3ccccc3c(=O)n2-c2ccc(C(=O)O)c(O)c2)cc1", "Mycobacterium tuberculosis", 1.81),
    ("CC[C@@H](CO)NCCN[C@@H](CC)CO", "Mycobacterium tuberculosis", 0.00),
    ("CO[C@H]1/C=C/O[C@@]2(C)Oc3c(C)c(O)c4c(O)c(c(/C=N/N5CCN(C)CC5)c(O)c4c3C2=O)NC(=O)/C(C)=C\\C=C\\[C@H](C)[C@H](O)[C@@H](C)[C@@H](O)[C@@H](C)[C@H](OC(C)=O)[C@@H]1C", "Mycobacterium tuberculosis", -1.22),
    ("CN[C@@H]1[C@H](O[C@H]2[C@H](O[C@H]3[C@H](O)[C@@H](O)[C@H](N=C(N)N)[C@@H](O)[C@@H]3N=C(N)N)O[C@@H](C)[C@]2(O)C=O)O[C@@H](CO)[C@H](O)[C@H]1O", "Mycobacterium tuberculosis", 0.00),
    ("COc1ccc(-c2nc(Nc3ccc(-c4nc5cc(Cl)ccc5[nH]4)cc3)c3ccccc3n2)cc1OC", "Mycobacterium tuberculosis", 1.51),
    ("COc1ccc(-c2nc(Nc3ccc(-c4nc5cc([N+](=O)[O-])ccc5[nH]4)cc3)c3ccccc3n2)cc1OC", "Mycobacterium tuberculosis", 0.90),
]

Sample O=C(Nc1ccc2nc(-c3ccc4ccccc4c3)[nH]c2c1)c1ccc(Nc2nc(-c3ccccc3)nc3ccccc23)cc1 — what was its log10 MIC?
1.81

log10 MIC for O=C(Nc1ccc(Nc2nc(-c3ccccc3)nc3ccccc23)cc1)c1cc(Br)ccc1Cl ?
0.60

Query (compound): O=C(Nc1ccc2nc(C(F)(F)F)[nH]c2c1)c1ccc(Nc2nc(-c3ccccc3)nc3ccccc23)cc1 ; field requested: log10 MIC
1.81

Which log10 MIC value is on record for O=C(Nc1ccc2nc(-c3cnc4c(Cl)cccc4c3)[nH]c2c1)c1ccc(Nc2nc(-c3ccccc3)nc3ccccc23)cc1 ?
1.20

Sample O=[N+]([O-])c1ccc2[nH]c(-c3ccc(Nc4nc(-c5ccccc5)nc5ccccc45)cc3)nc2c1 — what was its log10 MIC?
0.90

Tell me the measured log10 MIC of Clc1ccc2[nH]c(-c3ccc(Nc4nc(-c5ccccc5)nc5ccccc45)cc3)nc2c1 , please.
1.51

Looking for the measured log10 MIC of FC(F)(F)c1nc2ccc(Nc3nc(-c4cccs4)nc4ccccc34)cc2[nH]1 , can you help?
1.81

Suppose we examine the compound NNC(=O)c1ccncc1 ; what log10 MIC value has been reported?
-1.52
